Values were extracted from paper PMC10220285.

Target: GPX1 (Homo sapiens, UniProt P07203)
Construct: made in house; host or cells: E. coli
Experiment: GR-coupled GPX1 activity assay (NADPH fluorescence, CHP substrate)
Format: biochemical
Conditions: initial tests comparing GR-coupled and mBBr assay formats; read-out: IC50 in the GR-coupled assay
Method: The compound plates were prepared as described previously. Purified recombinant human GPX1, GPX2, GPX4, GR, and TXNRD1 were produced and purified as previously reported [[48], [49], [50]]. […] To measure GPX activity, assays were performed in 1536-well format in black medium-binding solid-bottom plates (Greiner). […] The rate of consumption of NADPH is directly proportional to the activity of GPX and can be measured by the decrease in fluorescence at 340 nm/450 nm. […]
Value Type: IC50 (nM)
API: value field is a number in nM; no unit string.

Please fill in: IC50 reported for CC(=O)OC[C@H]1O[C@@H]([S-])[C@H](OC(C)=O)[C@@H](OC(C)=O)[C@@H]1OC(C)=O.CCP(CC)CC.[Au+] [Auranofin] = 1940

* * *

// reported Tm GPX4 (nanoDSF) per item
target: GPX4 (Homo sapiens, UniProt P36969); construct: made in house; host or cells: E. coli; assay: nanoDSF thermal stabilization, GPX4; assay type: binding; details: 100 μM; DMSO control Tm 48.2°C; first or only inflection point
Sequence (P36969 28-197): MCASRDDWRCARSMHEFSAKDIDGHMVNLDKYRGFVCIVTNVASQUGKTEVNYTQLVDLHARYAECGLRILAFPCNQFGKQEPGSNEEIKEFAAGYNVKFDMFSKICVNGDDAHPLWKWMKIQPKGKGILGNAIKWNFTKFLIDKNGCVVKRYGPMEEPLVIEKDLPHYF
Field: numeric (°C). Do not append units.

CC1(C)CCC(c2ccc(Cl)cc2)=C(CN2CCN(c3ccc(C(=O)NS(=O)(=O)c4ccc(N[C@H](CCN5CCOCC5)CSc5ccccc5)c(S(=O)(=O)C(F)(F)F)c4)cc3)CC2)C1 = 51.4
CCCCCCO[C@@H](C)c1cccc(-c2csc(NC(=O)c3cc(Cl)c(/C=C(\C)C(=O)O)c(Cl)c3)n2)c1OC = 52.3
COc1ccc2c(O[C@@H]3C[C@H]4C(=O)N[C@]5(C(=O)NS(=O)(=O)C6CC6)C[C@H]5/C=C\CCCCN(C)C(=O)[C@@H]4C3)cc(-c3nc(C(C)C)cs3)nc2c1C = 52.7
Cc1cc(OCCCc2c3n(c4c(-c5c(C)nn(C)c5C)c(Cl)ccc24)[C@H](C)CN(c2cn(C)c4ccc(C(=O)O)cc24)C3=O)cc(C)c1Cl = 51.8

Tm GPX4 (nanoDSF) for O=C(Nc1cccc2c(=O)cc(-c3nnn[nH]3)oc12)c1ccc(OCCCCc2ccccc2)cc1 [Pranlukast hydrate] is 53.2

Notebook: C=C[C@@H]1C[C@]1(NC(=O)[C@@H]1C[C@@H]2CN1C(=O)[C@H](C(C)(C)C)NC(=O)O[C@@H]1C[C@H]1CCCCCc1nc3ccc(OC)cc3nc1O2)C(=O)NS(=O)(=O)C1CC1 , Tm GPX4 (nanoDSF) read as 52.3

get_value(item= N[C@@H](CCC(=O)N[C@@H](CS)C(=O)NCC(=O)O)C(=O)O , readout=Tm GPX4 (nanoDSF)) returns 52.9

Looking up CC1(C)CCC(CN2CCN(c3ccc(C(=O)NS(=O)(=O)c4ccc(NCC5CCOCC5)c([N+](=O)[O-])c4)c(Oc4cnc5[nH]ccc5c4)c3)CC2)=C(c2ccc(Cl)cc2)C1 , I found its Tm GPX4 (nanoDSF) recorded as 52.3

* * *

Biological target: GPX1 (Homo sapiens, UniProt P07203)
Construct: made in house; host or cells: E. coli
Sequence (P07203 1-203): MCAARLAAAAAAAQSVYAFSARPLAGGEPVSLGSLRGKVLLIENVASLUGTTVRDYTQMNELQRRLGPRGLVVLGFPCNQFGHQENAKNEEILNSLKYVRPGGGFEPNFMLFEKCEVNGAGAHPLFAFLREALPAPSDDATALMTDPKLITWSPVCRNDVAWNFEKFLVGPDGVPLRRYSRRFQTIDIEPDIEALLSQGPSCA
Assay: Monobromobimane orthogonal endpoint assay, GPX1
Type: biochemical
Details: initial tests comparing GR-coupled and mBBr assay formats
Procedure: As an orthogonal assessment of GPX inhibition, a monobromobimane endpoint assay was used (Fig. 1E). […] Upon GPX activity, GSH was depleted over time, whereupon 500 μM mBBr was added and fluorescence at 394/490 was measured using a Viewlux multimodal detector every 20 s for 20 min. […] Monobromobimane (mBBr) is a heterocyclic compound that reacts readily with low molecular weight thiols, like glutathione. […]
Value Type: IC50 (µM)
Give the quantity in µM, number only.

Input CC(=O)OC[C@H]1O[C@@H]([S-])[C@H](OC(C)=O)[C@@H](OC(C)=O)[C@@H]1OC(C)=O.CCP(CC)CC.[Au+] [Auranofin] . Output IC50: 5.3

* * *

molecular target: GPX4 (Homo sapiens, UniProt P36969); construct: made in house; host or cells: E. coli; experiment: GR-coupled GPX4 activity assay (NADPH fluorescence, CHP substrate); type: biochemical; conditions: assay validation, Fig. 3E; read-out: IC50, prior art GPX4 inhibitor activities in optimized assay
Value Type: IC50 (µM)
Value expressed in µM; do not type the unit.

Query O=C(O)CC(S)C(=O)O (stereo not shown) [MSA, Mercaptosuccinic acid] yields IC50 of 57.7

* * *

Target: GPX4 (Homo sapiens, UniProt P36969)
Construct: made in house; host or cells: E. coli
Test: GR-coupled GPX4 activity assay (NADPH fluorescence, CHP substrate)
Type: biochemical
Conditions: IC50 of resulting CRC, Table 2; read-out: IC50 GPx4
Protocol: The compound plates were prepared as described previously. Purified recombinant human GPX1, GPX2, GPX4, GR, and TXNRD1 were produced and purified as previously reported [[48], [49], [50]]. […] To measure GPX activity, assays were performed in 1536-well format in black medium-binding solid-bottom plates (Greiner). […] The rate of consumption of NADPH is directly proportional to the activity of GPX and can be measured by the decrease in fluorescence at 340 nm/450 nm. […]
Label true when IC50 is strictly below 9 µM; otherwise label false.

Look over these answered cases.
CC1(C)CCC(c2ccc(Cl)cc2)=C(CN2CCN(c3ccc(C(=O)NS(=O)(=O)c4ccc(N[C@H](CCN5CCOCC5)CSc5ccccc5)c(S(=O)(=O)C(F)(F)F)c4)cc3)CC2)C1 = false
O=C(O)Cc1cccc(OCCCN(Cc2cccc(C(F)(F)F)c2Cl)CC(c2ccccc2)c2ccccc2)c1 = false
Cc1cc(OCCCc2c3n(c4c(-c5c(C)nn(C)c5C)c(Cl)ccc24)[C@H](C)CN(c2cn(C)c4ccc(C(=O)O)cc24)C3=O)cc(C)c1Cl = true
CC1(C)CCC(CN2CCN(c3ccc(C(=O)NS(=O)(=O)c4ccc(NCC5CCOCC5)c([N+](=O)[O-])c4)c(Oc4cnc5[nH]ccc5c4)c3)CC2)=C(c2ccc(Cl)cc2)C1 = false
O=C(Nc1cccc2c(=O)cc(-c3nnn[nH]3)oc12)c1ccc(OCCCCc2ccccc2)cc1 [Pranlukast hydrate] = true

Data request: State whether 9 µM exceeds IC50 recorded for O=C(NNCS(=O)(=O)O)c1ccncc1 [Isoniazid sodium methanesulfonate] .
Data returned: true

* * *

Molecular target: GPX4 (Homo sapiens, UniProt P36969)
Construct: made in house; host or cells: E. coli
Assay: nanoDSF thermal stabilization, GPX4
Type: binding
Details: 100 μM small molecule vs DMSO control; first or only inflection point
Method: Thermal stabilization of enzyme ± DMSO or ± compound was carried out in a Prometheus NT.48 instrument (NanoTemper Technologies) with an excitation wavelength of 280 nm. Intrinsic fluorescence at 330 nm and 350 nm was monitored while heating. […] The ratio of the recorded emission intensities (350nm/330 nm) were plotted as a function of temperature. This ratio and first derivatives were calculated using the NanoTemper software and were plotted using GraphPad Prism.
Value Type: GSH Binding (ΔTm) GPx4; shift in nanoDSF melting temperature

Study these solved cases before continuing.
COc1ccc2c(O[C@@H]3C[C@H]4C(=O)N[C@]5(C(=O)NS(=O)(=O)C6CC6)C[C@H]5/C=C\CCCCN(C)C(=O)[C@@H]4C3)cc(-c3nc(C(C)C)cs3)nc2c1C = +4.5 °C
Cc1cc(OCCCc2c3n(c4c(-c5c(C)nn(C)c5C)c(Cl)ccc24)[C@H](C)CN(c2cn(C)c4ccc(C(=O)O)cc24)C3=O)cc(C)c1Cl = +3.6 °C

The molecule listed as N[C@@H](CCC(=O)N[C@@H](CS)C(=O)NCC(=O)O)C(=O)O shows GSH Binding (ΔTm) GPx4; shift in nanoDSF melting temperature equal to +4.7 °C

So for O=C(Nc1cccc2c(=O)cc(-c3nnn[nH]3)oc12)c1ccc(OCCCCc2ccccc2)cc1 [Pranlukast hydrate] , the logged GSH Binding (ΔTm) GPx4; shift in nanoDSF melting temperature turned out to be +5.0 °C

So for C=C[C@@H]1C[C@]1(NC(=O)[C@@H]1C[C@@H]2CN1C(=O)[C@H](C(C)(C)C)NC(=O)O[C@@H]1C[C@H]1CCCCCc1nc3ccc(OC)cc3nc1O2)C(=O)NS(=O)(=O)C1CC1 , the logged GSH Binding (ΔTm) GPx4; shift in nanoDSF melting temperature turned out to be +4.1 °C
